- protocol_summary: Oral bioavailability in rat
- Assay type: ADME, organism-based
- condition_description: in vivo
attribute_measured: bioavailability (%)
Answers are plain numbers, in %.

structure_smiles_string=CN(C)C(=N)c1ccc(CN2CCN(S(=O)(=O)c3cc4cc(Cl)ccc4[nH]3)CC2=O)cc1 attribute_measured=bioavailability unit_of_measurement=% test_value=4.1

Now take the following compound into account.
The compound listed as CN1CCN=C1c1ccc(C(=O)N2CCN(S(=O)(=O)c3cc4cc(Cl)ccc4[nH]3)CC2)cc1 has a reported bioavailability of 1.4

###

- protocol_summary: Volume of distribution in rats
- Type: ADME, organism-based
- condition_description: rat, in vivo
attribute_measured: Vd (L/kg)
Answers are plain numbers, in L/kg.

Measured Vd, CN1CCN=C1c1ccc(C(=O)N2CCN(S(=O)(=O)c3cc4cc(Cl)ccc4[nH]3)CC2)cc1 : 28.9

###

Target or system Coagulation factor X (Homo sapiens); recorded quantity IC50.
Put your answer as a value accompanied by its unit after it.

Below, 3 compounds whose answers are already recorded.
compound=N=C(c1ccc(CN2CCN(S(=O)(=O)c3cc4ccc(Cl)cc4s3)CC2=O)cc1)N1CCCCC1 attribute_measured=IC50 test_value="0.1 µM"
compound=N=C(c1ccc(C(=O)N2CCN(S(=O)(=O)c3cc4cc(Cl)ccc4[nH]3)CC2)cc1)N1CCC1 attribute_measured=IC50 test_value="0.024 µM"
compound=CCN1CCN=C1c1ccc(C(=O)N2CCN(S(=O)(=O)c3cc4ccc(Cl)cc4s3)CC2)cc1 attribute_measured=IC50 test_value="0.036 µM"

Provide the reported IC50 of each entry below, same order.
1. C#CCN(C)C(=O)CC1CN(S(=O)(=O)c2cc3cc(Cl)ccc3[nH]2)CCN1C(=O)c1ccc(C2=NCCN2C)cc1 (stereo not drawn)
2. CN1CCN=C1c1ccc(C(=O)N2CCN(S(=O)(=O)c3cc4cc(Cl)ccc4[nH]3)CC2CC(=O)N2CCN(c3ccncc3)CC2)cc1 (stereo not drawn)

result:
["0.014 µM", "0.008 µM"]

Record IC50 per entry; entries follow.
1. O=C(c1ccc(C2=NCCN2)cc1)N1CCN(S(=O)(=O)c2ccc3cc(Br)ccc3c2)CC1
2. CN1CCN=C1c1ccc(CN2CCN(S(=O)(=O)c3cc4ccc(Cl)cc4s3)CC2=O)cc1
3. CN1CCN=C1c1ccc(C(=O)N2CCN(S(=O)(=O)c3cc4cc(Cl)ccc4[nH]3)CC2CC(=O)O)cc1 (stereo not drawn)

result:
1: 0.53 µM; 2: 0.045 µM; 3: 0.041 µM

###

- target_of_assay: Prothrombin (Homo sapiens, UniProt P00734)
pIC50: −log10 of the molar value.
attribute_measured: pIC50

Reported pIC50 ( CN1CCN=C1c1ccc(C(=O)N2CCN(S(=O)(=O)c3cc4ccc(Cl)cc4s3)CC2)cc1 ) = < 8.00

###

List of IC50 tested on Coagulation factor X (Homo sapiens, UniProt P00742).
Sequence (P00742 41-179 limits assumed): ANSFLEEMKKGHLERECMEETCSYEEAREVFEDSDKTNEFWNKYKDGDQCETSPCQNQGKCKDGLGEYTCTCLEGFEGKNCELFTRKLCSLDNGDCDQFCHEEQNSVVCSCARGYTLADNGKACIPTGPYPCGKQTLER
Sequence (P00742 235-488 limits assumed): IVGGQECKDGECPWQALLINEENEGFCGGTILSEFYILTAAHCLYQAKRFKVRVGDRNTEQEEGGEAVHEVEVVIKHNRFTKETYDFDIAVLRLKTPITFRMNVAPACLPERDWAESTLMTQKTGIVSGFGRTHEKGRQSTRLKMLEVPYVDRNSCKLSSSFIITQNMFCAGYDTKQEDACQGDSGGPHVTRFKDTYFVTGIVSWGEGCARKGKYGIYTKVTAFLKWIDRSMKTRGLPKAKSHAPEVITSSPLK
Numbers only, in nM.

The following molecules have reported results that may help.
molecule="CN1CCN=C1c1ccc(C(=O)N2CCN(S(=O)(=O)c3cc4cc(Cl)ccc4[nH]3)CC2CC(=O)N2CCOCC2)cc1 (stereo not drawn)" target_of_assay="Coagulation factor X (Homo sapiens, UniProt P00742)" unit_of_measurement=nM test_value=11
molecule=CN1CCN=C1c1ccc(C(=O)N2CCN(S(=O)(=O)c3ccc4cc(Br)ccc4c3)CC2)cc1 target_of_assay="Coagulation factor X (Homo sapiens, UniProt P00742)" unit_of_measurement=nM test_value=31
molecule=N=C(c1ccc(C(=O)N2CCN(S(=O)(=O)c3cc4ccc(Cl)cc4s3)CC2)cc1)N1CCCCC1 target_of_assay="Coagulation factor X (Homo sapiens, UniProt P00742)" unit_of_measurement=nM test_value=71
molecule=N=C(c1ccc(CN2CCN(S(=O)(=O)c3cc4ccc(Cl)cc4s3)CC2=O)cc1)N1CCCC1 target_of_assay="Coagulation factor X (Homo sapiens, UniProt P00742)" unit_of_measurement=nM test_value=140
molecule="CN1CCN=C1c1ccc(C(=O)N2CCN(S(=O)(=O)c3cc4cc(Cl)ccc4[nH]3)CC2CC(=O)N2CCCCC2)cc1 (stereo not drawn)" target_of_assay="Coagulation factor X (Homo sapiens, UniProt P00742)" unit_of_measurement=nM test_value=7

Hey, can you go through the list below and give me IC50 for every item?
1. CN1CCN=C1c1ccc(C(=O)N2CCN(S(=O)(=O)c3cc4ccc(Cl)cc4s3)CC2CC(=O)N2CCC(C(=O)O)CC2)cc1 (stereo not drawn)
2. CN(C)C(=N)c1ccc(C(=O)N2CCN(S(=O)(=O)c3cc4ccc(Cl)cc4s3)CC2)cc1
3. CNC(=N)c1ccc(C(=O)N2CCN(S(=O)(=O)c3ccc4cc(Br)ccc4c3)CC2)cc1

result:
8
27
230

# batch size: 3; output IC50 per entry
1. CN1CCN=C1c1ccc(C(=O)N2CCN(S(=O)(=O)c3cc4ccc(Cl)cc4[nH]3)CC2)cc1
2. CN1CCN=C1c1ccc(C(=O)N2CCN(S(=O)(=O)c3cc4ccc(Cl)cc4s3)CC2CC(=O)N2CCCCC2)cc1 (stereo not drawn)
3. N=C(c1ccc(CN2CCN(S(=O)(=O)c3cc4cc(Cl)ccc4[nH]3)CC2=O)cc1)N1CCCCC1

result:
1. 590
2. 6
3. 150

Below is a list of molecules. For each, state its recorded IC50.
1. CN(C)C(=N)c1ccc(CN2CCN(S(=O)(=O)c3cc4cc(Cl)ccc4[nH]3)CC2=O)cc1
2. CNC(=O)CC1CN(S(=O)(=O)c2cc3cc(Cl)ccc3[nH]2)CCN1C(=O)c1ccc(C2=NCCN2C)cc1 (stereo not drawn)

result:
37
11
